- assayedTarget: Human serum albumin (Homo sapiens (Human), UniProt P02768 25-609)
- Sequence (P02768 25-609): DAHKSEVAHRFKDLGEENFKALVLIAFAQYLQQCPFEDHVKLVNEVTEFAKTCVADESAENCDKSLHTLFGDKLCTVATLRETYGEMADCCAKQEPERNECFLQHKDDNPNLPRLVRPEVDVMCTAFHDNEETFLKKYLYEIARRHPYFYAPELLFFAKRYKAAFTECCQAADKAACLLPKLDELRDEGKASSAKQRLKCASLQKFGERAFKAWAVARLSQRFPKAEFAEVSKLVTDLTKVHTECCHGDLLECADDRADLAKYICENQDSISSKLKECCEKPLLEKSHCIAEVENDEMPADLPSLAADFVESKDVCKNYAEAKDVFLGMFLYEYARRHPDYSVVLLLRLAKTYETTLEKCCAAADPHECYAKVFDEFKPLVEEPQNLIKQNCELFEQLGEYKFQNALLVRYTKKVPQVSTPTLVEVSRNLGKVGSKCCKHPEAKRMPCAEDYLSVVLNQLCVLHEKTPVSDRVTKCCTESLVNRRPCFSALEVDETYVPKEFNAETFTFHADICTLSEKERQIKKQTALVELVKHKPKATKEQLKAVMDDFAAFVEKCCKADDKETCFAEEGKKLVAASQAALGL
- assayDetails: filter; PBS + 5 mM MgCl2 pH 7.4
- conditionDetails: label: 32P
metricName: Kd (nM)
Record the value in nM, omitting the unit from your answer.

Enquiry: # lookup: Kd of 5183 (ssRNA, 2'-F pyrimidines) RNA: GGGAGACAAGAAUAAACGCUCAAUUUUUUAUUGCAUUUUUCUUUGAGCGUCAUUGAUACCCUGUUUCCUUGAGCACUUCGACAGGAGGCUCACAACAGGC
Return: 400

Data origin, for the record: paper PMC6098113
